Documented logP across a set of compounds
Experiment: logP determination (acidic / neutral)
Format: physicochemical
Conditions: pH 2.3; read-out: log P (pH 2.3)
Answer as a number with no unit attached.

INSERT INTO assay_data (smiles_representation, value_observed) VALUES
  ('CCN(C)C=Nc1cc(C)c(Oc2ccc(Cl)c(Cl)c2)cc1C', 2.48);

Q: Respond only with logP recorded for Cc1cc(Oc2ccc(Cl)c(Cl)c2)c(C)cc1N
A: 3.51

====

Assay: logP determination (acidic / neutral)
Assay type: physicochemical
Conditions: neutral
METRIC_NAME: logP neutral
Answer as a number with no unit attached.

Worked cases, answers included:
INSERT INTO results (compound, value_observed) VALUES
  ('CCN(C)C=Nc1cc(C)c(Oc2ccc3c(c2)CCCC3)cc1C [Compound 13]', 5.7),
  ('CCCN(C)C=Nc1cc(C)c(Oc2cc(F)cc(I)c2)cc1C [Compound 20]', 6.6),
  ('Cc1cc(Oc2ccc(Br)c(Br)c2)c(C)cc1N=CN1CCCCC1 [Compound 39]', 6.93);

Moving on to another compound below.
Q: Respond only with logP neutral recorded for CCCN(C)C=Nc1cc(C)c(Oc2ccc(Cl)c(Br)c2)cc1C [Compound 17]
A: 6.6
